biological target: Follistatin (Homo sapiens); experiment: FST protein binding to printed compounds – biochemical, small-molecule microarray, 635/667 nm fluorescence, primary screen (AID 1132); conditions: 635 nm fluorescence, higher = more signal
measured-attribute: composite z-score
Form rule: numeric answer, no unit written next to it.

// solved cases for composite z-score follow
compound	composite z-score
CN1C(=O)C2C(C3CC3)C=C3CN(Cc4cccc(Cl)c4)[C@@H]([C@@H](O)Cc4ccccc4)C3C2C1=O (stereo not given in full)	0.662
[N-]=[N+]=Nc1ccccc1[C@@H]1OC(c2ccc(OCCCO)cc2)=N[C@]1(Cc1ccccc1)C(=O)NCCN1CCOCC1	0.675
Cc1ccc(S[C@]2(C(=O)NC3CC3)CC(=O)N(C(C)C)[C@@H]2c2ccc(CO)cc2I)cc1	0.536
COc1cc(CO)cc(I)c1O[C@H]1C=C(C(=O)NCCO)C[C@@H]2O[C@H]12	1.52
CC(C)C(=C=CC[C@H](O)c1ccccc1OCCO)C[C@H](O)COCc1ccccc1	-0.0978
N#Cc1ccc(C(O)C2C=CC3C(=O)NC(=O)C3N2Nc2ccc(Cl)cc2Cl)cc1 (stereo not given)	-0.0644
CCCNC(=O)[C@@]1(Sc2ccc(C)cc2)CC(=O)N(Cc2ccccc2Cl)[C@@H]1c1ccc(CO)cc1I	-0.328
COc1ccc([Si](C)(C)[C@H]2[C@H](CC(=O)N3Cc4ccccc4C[C@H]3CO)O[C@@]3(C(=O)N(c4ccccc4)c4ccccc43)[C@@H]2C)cc1	1.37
CCCCCC1=C2CNC(CC(C)C)(C(=O)OC)C=C2C(C)C1=O (stereo not given)	-0.127
COCCCN1C(=O)[C@@]2(c3ccc([N+](=O)[O-])cc3)CC(=O)N(CC34CC5CC(CC(C5)C3)C4)[C@@H]2c2ccc(CO)cc21	1

Query: Field request: composite z-score | item: `O=C1[C@@H]2[C@@H](CC(COc3ccccc3)=C([C@H](O)CCc3ccccc3)[C@@H]2CO)C(=O)N1Cc1ccccc1`
Reply: 0.561

Query: Field request: composite z-score | item: `C=C(CCCC)/C(=C/C[C@@H](OC(C)=O)c1ccc(CO)o1)c1cnc2ccccc2c1`
Reply: 1.31

Query: Field request: composite z-score | item: `COc1ccc([Si](C)(C)[C@H]2[C@H](CCO)O[C@@]3(C(=O)N(Cc4cccc(N(C=O)c5ccccc5)c4)c4ccccc43)[C@@H]2C)cc1`
Reply: 0.832

Query: Field request: composite z-score | item: `COC(=O)[C@@]1(Cc2ccccc2)[C@H]2c3cc(C(=O)N(C)C)n(Cc4ccc(S(C)(=O)=O)cc4)c3C[C@H]2CN1C(=O)c1ccccc1`
Reply: -0.0741

Query: Field request: composite z-score | item: C=CC[C@]1(C(=O)NCC(O)CO)COC(c2ccc(OCCCO)cc2)=N1 (stereo not given in full)
Reply: 0.821

Query: Field request: composite z-score | item: CC(=O)c1ccc(C(O)C2C=CC3C(=O)N(c4ccccc4)C(=O)C3N2Nc2ccc(C(C)C)cc2)cc1 (stereo not given)
Reply: 1.13

Query: Field request: composite z-score | item: `O=C1N(Cc2ccccc2)c2ccccc2C[C@@]12COC(c1ccc(OCCCO)cc1)=N2`
Reply: 1.3

Query: Field request: composite z-score | item: `CCCN1C(=O)[C@@]2(c3ccc([N+](=O)[O-])cc3)CC(=O)N(CC34CC5CC(CC(C5)C3)C4)[C@@H]2c2ccc(CO)cc21`
Reply: 1.23

Query: Field request: composite z-score | item: `COc1ccc([Si](C)(C)[C@@H]2[C@@H](CC(=O)N(CCO)Cc3ccccc3)O[C@]3(C(=O)N(Cc4ccc(N5C(=O)c6cccc7cccc5c67)cc4)c4ccccc43)[C@H]2C)cc1`
Reply: 0.552

Query: Field request: composite z-score | item: `COC(=O)[C@@]1(Cc2ccccc2)N=C(c2ccc(OCCCO)cc2)O[C@H]1c1ccccc1CN=[N+]=[N-]`
Reply: 1.33

====

assay: change in splice reporter luminescence, either direction, cell-based, HEK293, spliceosome inhibition project, primary screen (AID 1101); details: HEK293 splicing luciferase reporter, 24 h, higher = more signal, called active from +8 up or from −8 down;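 further: HEK293 cells carrying a splicing-competent luciferase reporter gene; test concentration not given here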
z-score values by entry
Form rule: numeric answer, no unit written next to it.

// solved cases for z-score follow
compound	measured-attribute	result-number
CCCC#C[Si](O[C@H](CC)c1cn(Cc2ccccc2)nn1)(C(C)C)C(C)C	z-score	-0.539
O=C1C[C@@](C(=O)NCc2ccccc2)(c2ccc([N+](=O)[O-])cc2)[C@@H](c2ccc(CO)cc2)N1C1CCCCC1	z-score	-1.97
COc1ccc([Si](C)(C)[C@@H]2[C@@H](CC(=O)N3Cc4ccccc4C[C@H]3CO)O[C@]3(C(=O)N(Cc4ccc(N5CCOC5=O)cc4)c4ccccc43)[C@H]2C)cc1	z-score	-1.36
CC(C)N1C(=O)c2ccccc2[C@@H](C(=O)NCC(F)(F)F)[C@@H]1c1ccc(CO)cc1	z-score	0.655
C=C(COC)C(=O)CC[C@@H](OC(C)=O)c1ccccc1OCCO	z-score	1.34
CCCCN1CC=CC23O[C@@H]4/C=C\CCCOC(=O)C4[C@H]2C(=O)N(C(CO)C(C)C)[C@@H]3C1=O (some centres undefined)	z-score	0.558

Query: Field request: z-score | item: `NC(=O)NCC#Cc1ccc2c(c1)[C@]1(C(=O)N2)[C@H](c2ccc(OCCO)cc2)N2[C@H](c3ccccc3)[C@H](c3ccccc3)OC(=O)[C@H]2[C@@H]1C(=O)O`
Reply: -0.708

Query: Field request: z-score | item: CC(C)=CCCC(C)=CC(O)C1C=CC2C(=O)NC(=O)C2N1Nc1ccccn1 (centres undefined)
Reply: -0.121

Query: Field request: z-score | item: `O=C(O)[C@H](Cc1ccccc1)n1cc(C2(O)CCCCC2)nn1`
Reply: -0.358

====

test: basal CRE-LacZ reporter activity in PC12 – cell-based, unstimulated, primary screen (AID 1145); conditions: no forskolin, luminescence, 4.5 h, higher = more signal, called active from +8 up or from −8 down
Active and inactive are the calls of the source.
z-score values by entry

compound	result
CC(=O)c1ccc(C(O)C2C=CC3C(=O)N(c4ccccc4)C(=O)C3N2Nc2ccc(C(C)C)cc2)cc1 (stereo not given)	1.4 (inactive)
C=CCNC(=O)[C@H]1[C@@H]2C(=O)O[C@@H](c3ccccc3)[C@@H](c3ccccc3)N2[C@@H](c2ccc(OCCO)cc2)[C@]12C(=O)Nc1ccc(C#CC3(O)CCCCCC3)cc12	-0.329 (inactive)
C=C(CCCC)/C(=C/C[C@@H](OC(C)=O)c1ccc(CO)o1)c1cnc2ccccc2c1	2.76 (inactive)

Query: Field request: z-score | item: `C=CC[C@@]1(C(=O)OC)N=C(c2ccc(OCCCO)cc2)O[C@@H]1c1ccccc1N=[N+]=[N-]`
Reply: 1.79 (inactive)

Query: Field request: z-score | item: `O=C(NCCN1CCOCC1)[C@@H]1c2ccccc2C(=O)N(Cc2ccc(OC(F)(F)F)cc2)[C@H]1c1ccc(CO)cc1`
Reply: 0.558 (inactive)

====

molecular target: Streptavidin (Streptomyces avidinii) (UniProt P22629); assay: compounds binding control protein streptavidin – biophysical, small-molecule microarray, 635/667 nm fluorescence, artefact control for SMM compound annotation, primary screen (AID 1147); details: higher = more signal;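 further: signal reflects streptavidin binding to arrayed compounds as a control protein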
Sequence (P22629 whole entry, looked up): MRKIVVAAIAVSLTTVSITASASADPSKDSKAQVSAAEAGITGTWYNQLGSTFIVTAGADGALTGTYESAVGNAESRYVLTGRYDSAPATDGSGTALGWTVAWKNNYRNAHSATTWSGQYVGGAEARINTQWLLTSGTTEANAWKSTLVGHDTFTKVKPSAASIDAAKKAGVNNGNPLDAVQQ
composite z-score below -0.3 gives false (0); composite z-score at or above it gives true (1).

compound	assigned-category
CC(C)C(=C=CC[C@H](O)c1ccccc1OCCO)C[C@H](O)COCc1ccccc1	true (1)
CCCCCCc1nc(-c2ccc(-c3ccc(Cl)c(Cl)c3)o2)cc2c1[Si](C(C)C)(C(C)C)OC2	false (0)
CCCCCC1=C2CNC(CC(C)C)(C(=O)OC)C=C2C(C)C1=O (stereo not given)	true (1)

Query: Determine whether this compound has composite z-score no lower than -0.3: CC(C)C(CO)N1C(=O)[C@@H]2C3C(=O)OCCC/C=C\[C@H]3OC23C=CCN(Cc2ccccc2)C(=O)[C@@H]13 (stereo not given in full)
Reply: false (0)

Query: Determine whether this compound has composite z-score no lower than -0.3: N#Cc1ccc(C(O)C2C=CC3C(=O)NC(=O)C3N2Nc2ccc(Cl)cc2Cl)cc1 (stereo not given)
Reply: true (1)

====

experiment: resazurin metabolic signal in HepG2 cells – cell-based, resazurin fluorescence, 24 h, PK04 Diversity Set, profiling panel (AID 1172); conditions: HepG2 viability, higher = more signal; further: test concentration not given here
measured-attribute: z-score
Form rule: numeric answer, no unit written next to it.

// solved cases for z-score follow
compound	result-number
O=C1C2C=CC(C(O)c3cccs3)N(Nc3ccc([N+](=O)[O-])cc3)C2C(=O)N1c1ccccc1 (centres undefined)	0.626
COCCCN1C(=O)[C@@]2(c3ccc([N+](=O)[O-])cc3)CC(=O)N(CC34CC5CC(CC(C5)C3)C4)[C@@H]2c2ccc(CO)cc21	-0.35
N#Cc1ccc(-c2cccc(=O)o2)cc1	-0.518
CN(C)CCCC[C@@H]1NC(=O)[C@@H]2C[C@H](C(=O)NCCCCCN)[C@H](c3cccc(OCCO)c3)N2C1=O	0.881

Query: Field request: z-score | item: `CCCN1C(=O)[C@@]2(c3ccc([N+](=O)[O-])cc3)CC(=O)N(CC34CC5CC(CC(C5)C3)C4)[C@@H]2c2ccc(CO)cc21`
Reply: -0.113

Query: Field request: z-score | item: `C=CC[C@@]12N=C(c3ccc(OCCCO)cc3)O[C@@H]1c1ccccc1N(CCC)C2=O`
Reply: 0.167

Query: Field request: z-score | item: `O=C1O[C@@H](c2ccccc2)[C@@H](c2ccccc2)N2[C@@H](c3ccc(OCCO)cc3)[C@]3(C(=O)Nc4ccc(C#CC5(O)CCCCCC5)cc43)[C@@H](C(=O)O)[C@H]12`
Reply: -0.253

Query: Field request: z-score | item: `CN(C)CCCNC(=O)[C@@]1(C)c2ccccc2C(=O)N(Cc2ccc(OC(F)(F)F)cc2)[C@H]1c1ccc(CO)cc1`
Reply: -0.732

Query: Field request: z-score | item: `C[N+](C)(C)CCCC[C@@H]1NC(=O)[C@H]2C[C@@H](C(=O)NCCCCCNC(=O)CS)[C@@H](c3cccc(OCCO)c3)N2C1=O`
Reply: -0.226

Query: Field request: z-score | item: `C=C(COC)C(=O)CC[C@@H](OC(C)=O)c1ccccc1OCCO`
Reply: 0.463

Query: Field request: z-score | item: `COc1ccc([Si](C)(C)[C@@H]2[C@@H](CC(=O)N3Cc4ccccc4C[C@H]3CO)O[C@]3(C(=O)N(Cc4cccc(N5CCOC5=O)c4)c4ccccc43)[C@H]2C)cc1`
Reply: -1.02

Query: Field request: z-score | item: CC1CC/C=C\[C@H]2OC34C=CCN(C(C)(C)C)C(=O)[C@H]3N(CCCO)C(=O)[C@@H]4C2C(=O)O1 (some centres undefined)
Reply: -0.216

Query: Field request: z-score | item: `Cc1ccc(S[C@]2(C(=O)NC3CC3)CC(=O)N(C(C)C)[C@@H]2c2ccc(CO)cc2I)cc1`
Reply: 0.0662

Query: Field request: z-score | item: `C=CCN1C(=O)[C@@]2(O[C@@H](CCn3cc([C@H](O)c4ccccc4)nn3)[C@H]([Si](C)(C)c3ccc(OC)cc3)[C@H]2C)c2cc(N3C(=O)c4cccc5cccc3c45)ccc21`
Reply: -1.36

Query: Field request: z-score | item: `Cc1ccc(F)cc1S(=O)(=O)N[C@H]1CCN(Cc2ccc(OC(C)C)cc2)C1`
Reply: -0.757

Query: Field request: z-score | item: `CCOC(=O)c1cn(C[C@H](Cc2ccccc2)NC(=O)N[C@H](CO)CCc2oc(C(C)=O)c(C(=O)OC)c2C(=O)OC)nn1`
Reply: -0.756
